tested system: T1, sIL-6R (soluble IL-6 receptor; SBH Sciences) (human, UniProt P08887 20-365)
T1 construct: also called human IL-6R
T1 sequence: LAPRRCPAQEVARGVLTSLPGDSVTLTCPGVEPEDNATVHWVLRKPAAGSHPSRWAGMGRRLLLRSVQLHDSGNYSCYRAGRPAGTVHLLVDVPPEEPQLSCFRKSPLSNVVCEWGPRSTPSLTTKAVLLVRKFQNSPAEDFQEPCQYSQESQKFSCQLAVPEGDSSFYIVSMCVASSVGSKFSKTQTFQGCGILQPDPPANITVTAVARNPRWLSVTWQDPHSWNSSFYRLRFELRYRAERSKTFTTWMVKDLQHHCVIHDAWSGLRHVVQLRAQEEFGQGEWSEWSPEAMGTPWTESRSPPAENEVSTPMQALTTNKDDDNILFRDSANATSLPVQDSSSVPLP
protocol summary: SPR (BIAcore 3000), antibody on chip, sIL-6R analyte, 25 C
Collected pKd values appear next to each entry.
Convention used: pKd is expressed as -log10 of the molar concentration.

Dear colleague, I am looking for the recorded pKd of the following binder: 51# (antibody, human IgG1, kappa, V domains shown, also called Sample # 51) VH: QVQLQESGPGLVRPSQTLSLTCTVSGYSITSDHAWSWVRQPPGRGLEWIGYISYSGITTYNPSLKSRVTMLRDTSKNQFSLRLSSVTAADTAVYYCARCLARMTAMDYWGQGSLVTVSS VL: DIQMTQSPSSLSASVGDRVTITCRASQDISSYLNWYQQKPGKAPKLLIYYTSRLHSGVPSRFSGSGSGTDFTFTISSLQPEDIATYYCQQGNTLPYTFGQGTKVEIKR 9.38

Another binder to check: 68# (antibody, human IgG1, kappa, V domains shown, also called Sample # 68) VH: QVQLQESGPGLVRPSQTLSLTCTVSGYSITSDHAWSWVRQPPGRGLEWIGFISYSGMTTYNPSLKSRVTMLRDTSKNQFSLRLSSVTAADTAVYYCARCLARITAIDYFGQGSLVTVSS VL: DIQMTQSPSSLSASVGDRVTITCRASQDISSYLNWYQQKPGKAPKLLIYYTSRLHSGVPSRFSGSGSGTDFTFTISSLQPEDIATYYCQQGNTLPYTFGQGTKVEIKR 10.53

Another binder to check: 206# (antibody, human IgG1, kappa, V domains shown, also called Sample # 206) VH: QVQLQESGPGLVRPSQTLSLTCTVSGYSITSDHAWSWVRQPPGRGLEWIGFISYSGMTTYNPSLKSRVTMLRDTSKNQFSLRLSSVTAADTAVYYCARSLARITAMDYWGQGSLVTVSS VL: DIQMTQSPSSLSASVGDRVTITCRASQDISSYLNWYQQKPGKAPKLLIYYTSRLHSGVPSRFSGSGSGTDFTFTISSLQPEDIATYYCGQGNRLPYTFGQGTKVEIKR 12.12
